We begin with a simple list: items and their reported pIC50.
molecular target: IKKε (Homo sapiens, UniProt Q14164); construct: TBK1 and IKKε were expressed and purified as full length recombinant proteins; made in house; experiment: TR-FRET enzymatic activity assay, IKKε; type: biochemical; details: read-out: IKKϵ IC50; note: full length recombinant IKKε at 0.3 nM
Sequence (Q14164 whole entry): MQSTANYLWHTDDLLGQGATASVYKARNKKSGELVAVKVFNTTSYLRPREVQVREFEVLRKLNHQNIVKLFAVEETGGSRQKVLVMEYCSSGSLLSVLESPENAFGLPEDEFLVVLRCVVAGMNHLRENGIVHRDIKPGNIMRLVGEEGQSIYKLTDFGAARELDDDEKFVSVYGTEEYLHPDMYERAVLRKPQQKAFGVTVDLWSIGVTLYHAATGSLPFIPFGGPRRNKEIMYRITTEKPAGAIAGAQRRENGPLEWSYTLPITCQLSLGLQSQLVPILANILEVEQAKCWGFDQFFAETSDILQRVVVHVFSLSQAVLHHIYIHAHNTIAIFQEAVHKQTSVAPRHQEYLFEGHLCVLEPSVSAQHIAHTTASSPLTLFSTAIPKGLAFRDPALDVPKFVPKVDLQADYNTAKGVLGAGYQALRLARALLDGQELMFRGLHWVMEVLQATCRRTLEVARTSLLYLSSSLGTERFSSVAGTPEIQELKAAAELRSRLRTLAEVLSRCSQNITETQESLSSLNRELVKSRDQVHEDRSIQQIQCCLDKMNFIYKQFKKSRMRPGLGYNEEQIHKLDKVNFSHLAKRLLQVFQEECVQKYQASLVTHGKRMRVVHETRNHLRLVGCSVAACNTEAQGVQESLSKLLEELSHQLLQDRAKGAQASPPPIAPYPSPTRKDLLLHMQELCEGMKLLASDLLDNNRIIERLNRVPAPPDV
Just the number, please; pIC50 means minus log10 of the concentration in mol/L.

Example results:
[[record]]
compound = "N#Cc1cc(-c2ccnc(NC(=O)[C@H]3C[C@@H]3c3cccnc3)c2)ccc1OC1CCOCC1 (relative stereo)"
measurement_target = "IKKε (Homo sapiens, UniProt Q14164)"
readout_number = 6.89

[[record]]
compound = "N#Cc1cc(-c2cc(NC(=O)[C@@H]3C[C@H]3c3cccnc3)ncn2)ccc1O[C@H]1CCN(C(=O)CO)C[C@H]1F"
measurement_target = "IKKε (Homo sapiens, UniProt Q14164)"
readout_number = 7.44

[[record]]
compound = "Cc1noc([C@@H]2C[C@H]2C(=O)Nc2cc(-c3ccc(OC4CCOCC4)c(C#N)c3)ccn2)n1"
measurement_target = "IKKε (Homo sapiens, UniProt Q14164)"
readout_number = 6.49

[[record]]
compound = "C[C@H]1C[C@@H](Oc2ccc(-c3cc(NC(=O)C4CC4)ncn3)cc2C#N)CCN1C(=O)CO"
measurement_target = "IKKε (Homo sapiens, UniProt Q14164)"
readout_number = 6.68

[[record]]
compound = "N#Cc1cc(-c2ccnc(NC(=O)[C@H]3[C@@H]4CNC[C@@H]43)c2)ccc1OC1CCOCC1"
measurement_target = "IKKε (Homo sapiens, UniProt Q14164)"
readout_number = 6.50


// switching to the query compound
Recorded result, N#Cc1cc(-c2ccnc(NC(=O)C3CCC3)c2)ccc1OC1CCOCC1 , pIC50: 6.55

----------
biological target: TBK1 (Homo sapiens, UniProt Q9UHD2); construct: TBK1 and IKKε were expressed and purified as full length recombinant proteins; assay: TR-FRET enzymatic activity assay, TBK1; note: full length recombinant TBK1 at 2.5 nM
Sequence (Q9UHD2 whole entry): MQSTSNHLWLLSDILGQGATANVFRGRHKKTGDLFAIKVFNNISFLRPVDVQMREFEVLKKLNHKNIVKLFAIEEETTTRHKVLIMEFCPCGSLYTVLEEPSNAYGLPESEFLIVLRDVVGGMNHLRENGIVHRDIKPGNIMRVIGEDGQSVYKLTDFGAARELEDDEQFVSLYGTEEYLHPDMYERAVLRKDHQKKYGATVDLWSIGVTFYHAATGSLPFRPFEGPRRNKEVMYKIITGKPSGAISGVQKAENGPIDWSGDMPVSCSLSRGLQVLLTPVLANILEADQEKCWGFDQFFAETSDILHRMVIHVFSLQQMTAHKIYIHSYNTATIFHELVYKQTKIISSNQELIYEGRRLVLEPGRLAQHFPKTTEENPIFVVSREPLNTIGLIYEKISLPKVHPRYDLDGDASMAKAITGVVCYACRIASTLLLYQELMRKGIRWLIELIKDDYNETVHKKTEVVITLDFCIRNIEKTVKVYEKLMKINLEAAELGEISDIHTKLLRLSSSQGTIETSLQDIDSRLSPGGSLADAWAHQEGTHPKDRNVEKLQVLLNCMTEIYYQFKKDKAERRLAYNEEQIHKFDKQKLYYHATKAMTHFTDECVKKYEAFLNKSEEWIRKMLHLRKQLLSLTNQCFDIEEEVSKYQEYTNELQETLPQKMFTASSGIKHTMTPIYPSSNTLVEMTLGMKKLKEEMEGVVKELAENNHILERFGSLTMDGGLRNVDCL
The threshold is 50 nM. Values of IC50 beneath it are tagged criterion met; values meeting or exceeding it are tagged criterion not met.

// known answers, use as guide
[[record]]
molecule = "Cc1n[nH]c(C(=O)N2CC[C@H](Oc3ccc(-c4cc(NC(=O)C5CC5)ncn4)cc3C#N)[C@H](F)C2)n1"
assigned_label = "criterion met"

[[record]]
molecule = "CC(C)(C)OC(=O)N1CC[C@H](Oc2ccc(-c3cc(NC(=O)C4CC4)ncn3)cc2C#N)C(F)(F)C1"
assigned_label = "criterion not met"

[[record]]
molecule = "Cc1nnc([C@@H]2C[C@H]2C(=O)Nc2cc(-c3ccc(O[C@H]4CCN(C(=O)CO)C[C@H]4F)c(C#N)c3)ccn2)o1"
assigned_label = "criterion met"

[[record]]
molecule = "COC(=O)[C@@H]1C[C@H]1C(=O)Nc1cc(-c2ccc(O[C@H]3CCN(C(=O)CO)C[C@H]3F)c(C#N)c2)ccn1 (relative stereo)"
assigned_label = "criterion met"

[[record]]
molecule = "Cn1cc([C@H]2C[C@@H]2C(=O)Nc2cc(-c3ccc(O[C@H]4CCN(C(=O)CO)CC4(F)F)c(C#N)c3)ccn2)cn1"
assigned_label = "criterion met"

[[record]]
molecule = "N#Cc1cc(-c2ccnc(NC(=O)C3CC3)c2)ccc1N1CCC[C@@H]1C(N)=O"
assigned_label = "criterion not met"


Query molecule follows.
Hello, I'm reviewing records and need to know if IC50 of Cn1cc(C2CC2C(=O)Nc2cc(-c3ccc(O[C@H]4CCN(C(=O)CO)C[C@H]4F)c(C#N)c3)ccn2)cn1 (stereo partly shown) is below 50 nM. Could you check?
criterion met
